Test system: Mus musculus
Assay: Antidepressant activity in KunMing mouse assessed as immobility time at 50 mg/kg, ip by forced swimming test
Type: functional
Conditions: route intraperitoneal
Friendly reminder: Time below 100 s is yes (1), at or above is no (0).

# count of solved cases: 8
1. O=C1CCc2cc(-n3cnnc3)ccc2N1Cc1ccc(Cl)cc1	yes (1)
2. O=C1CCc2cc(-n3cnnc3)ccc2N1Cc1ccc(F)cc1	yes (1)
3. O=C1CCc2cc(-n3cnnc3)ccc2N1Cc1ccccc1	yes (1)
4. CCCCCCCN1C(=O)CCc2cc(-n3cnnc3)ccc21	yes (1)
5. O=C1CCc2cc(-n3cnnc3)ccc2N1Cc1c(Cl)cccc1Cl	no (0)
6. O=C1CCc2cc(-n3cnnc3)ccc2N1Cc1cccc(Cl)c1	yes (1)
7. CCCCCN1C(=O)CCc2cc(-n3cnnc3)ccc21	no (0)
8. O=C1CCc2cc(-n3cnnc3)ccc2N1Cc1cccc(F)c1	yes (1)

Consider COc1ccc(CN2C(=O)CCc3cc(-n4cnnc4)ccc32)cc1 . Does its Time lie strictly below 100 s?
no (0)

Given CCCN1C(=O)CCc2cc(-n3cnnc3)ccc21 , is recorded Time strictly lower than 100 s?
no (0)

====

Tested on: Mus musculus
Test: Neurotoxicity in KunMing mouse assessed as motor impairment at 300 mg/kg, ip after 0.5 hrs by rotarod test
Type: toxicity, organism-based
Design: dose 300 mg/kg, route intraperitoneal
Details: in vivo
value.type: Activity

Below, 4 compounds whose answers are already recorded.
1) O=C1CCc2cc(-n3cnnc3)ccc2N1Cc1ccc(Cl)cc1Cl	Non-toxic
2) CCCN1C(=O)CCc2cc(-n3cnnc3)ccc21	Non-toxic
3) O=C1CCc2cc(-n3cnnc3)ccc2N1Cc1ccccc1	Non-toxic
4) O=C1CCc2cc(-n3cnnc3)ccc2N1Cc1ccccc1Cl	Non-toxic

Determine from records and report Activity for O=C1CCc2cc(-n3cnnc3)ccc2N1Cc1ccc(F)cc1
Non-toxic

Report Activity for CCCCN1C(=O)CCc2cc(-n3cnnc3)ccc21
Non-toxic

Quote Activity reported for O=C1CCc2cc(-n3cnnc3)ccc2N1Cc1cccc(Cl)c1 please.
Non-toxic

====

Tested on: Mus musculus
Assay: Neurotoxicity in ip dosed KunMing mouse assessed as motor impairment after 0.5 hrs by rotarod test
Type: toxicity, organism-based
Details: in vivo
Recorded MTC values for a group of compounds are listed next.
Kindly provide the numeric value in mg/kg only, without the unit symbol.

1) CCCCCN1C(=O)CCc2cc(-n3cnnc3)ccc21	300
2) CCCCCCN1C(=O)CCc2cc(-n3cnnc3)ccc21	300
3) O=C1NC(=O)C(c2ccccc2)(c2ccccc2)N1	100

Field: next compound
Indicate the recorded MTC value for this compound: CCCCCCCN1C(=O)CCc2cc(-n3cnnc3)ccc21
300

====

Tested on: Mus musculus
Assay: Neurotoxicity in KunMing mouse at 50 mg/kg, ip
Assay type: toxicity, organism-based
Design: dose 50 mg/kg, route intraperitoneal
Conditions: in vivo
value.type: Activity

1) O=C1CCc2cc(-n3cnnc3)ccc2N1Cc1c(Cl)cccc1Cl	Non-toxic
2) CCCCCCCCN1C(=O)CCc2cc(-n3cnnc3)ccc21	Non-toxic
3) O=C1CCc2cc(-n3cnnc3)ccc2N1Cc1cccc(C(F)(F)F)c1	Non-toxic
4) O=C1CCc2cc(-n3cnnc3)ccc2N1Cc1ccccc1F	Non-toxic
5) CCCCCCCCCCN1C(=O)CCc2cc(-n3cnnc3)ccc21	Non-toxic

Using known records, supply Activity for Cc1ccc(CN2C(=O)CCc3cc(-n4cnnc4)ccc32)cc1
Non-toxic

Give Activity for the following compound: CCCCCCCN1C(=O)CCc2cc(-n3cnnc3)ccc21
Non-toxic

====

Test system: Mus musculus
Assay: Neurotoxicity in KunMing mouse at 50 mg/kg, ip
Format: toxicity, organism-based
Design: dose 50 mg/kg, route intraperitoneal
Settings: in vivo
value.type: Activity

// below: answered molecules
1) O=C1CCc2cc(-n3cnnc3)ccc2N1Cc1ccc(Cl)cc1	Non-toxic
2) CCCCCCN1C(=O)CCc2cc(-n3cnnc3)ccc21	Non-toxic
3) CCCCCN1C(=O)CCc2cc(-n3cnnc3)ccc21	Non-toxic
4) O=C1CCc2cc(-n3cnnc3)ccc2N1Cc1ccccc1Cl	Non-toxic
5) CCCCN1C(=O)CCc2cc(-n3cnnc3)ccc21	Non-toxic

Now let's try a different one.
Please indicate Activity recorded for O=C1CCc2cc(-n3cnnc3)ccc2N1Cc1ccc(Cl)cc1Cl
Non-toxic

====

Tested on: Mus musculus
Assay: Anticonvulsant activity in ip dosed KunMing mouse assessed as protection against maximal electroshock-induced seizures after 0.5 hrs
Assay type: functional
Conditions: read-out: MED
Quick reference for minimal effective dose among some compounds
// return numeric value only (unit: mg/kg, not printed)

// solved cases for minimal effective dose follow
1. CCCC(CCC)C(=O)[O-].[Na+] [VALPROATE SODIUM]	300
2. CCCCCCCN1C(=O)CCc2cc(-n3cnnc3)ccc21	300
3. O=C1CCc2cc(-n3cnnc3)ccc2N1Cc1cccc(C(F)(F)F)c1	300

Report measured minimal effective dose; entry is CCCCCN1C(=O)CCc2cc(-n3cnnc3)ccc21
100

Identify the reported minimal effective dose for the following entry. CCCCCCN1C(=O)CCc2cc(-n3cnnc3)ccc21
100

Recall and state the measured minimal effective dose for CCCCCCCCN1C(=O)CCc2cc(-n3cnnc3)ccc21 .
300

Determine from records and report minimal effective dose for O=C1CCc2cc(-n3cnnc3)ccc2N1Cc1ccc(Cl)cc1Cl
300

Let me know recorded minimal effective dose for O=C1NC(=O)C(c2ccccc2)(c2ccccc2)N1 [PHENYTOIN] , thanks.
30

====

Below, each of the compounds is paired with its reported Time value.
Tested on: Mus musculus
Assay: Antidepressant activity in KunMing mouse assessed as immobility time at 50 mg/kg, ip by forced swimming test
Format: functional
Conditions: route intraperitoneal
Write it as a number; the unit s goes unstated.

Below: 5 compounds and their reported Time.
1) O=C1CCc2cc(-n3cnnc3)ccc2N1Cc1cccc(C(F)(F)F)c1	93.3
2) CCCCCCCCN1C(=O)CCc2cc(-n3cnnc3)ccc21	83.3
3) CCCCN1C(=O)CCc2cc(-n3cnnc3)ccc21	70
4) CNCCC(Oc1ccc(C(F)(F)F)cc1)c1ccccc1 (stereo not drawn)	65.9
5) O=C1CCc2cc(-n3cnnc3)ccc2N1Cc1ccccc1F	35.6

Please list Time recorded for the compound O=C1CCc2cc(-n3cnnc3)ccc2N1Cc1ccc(Cl)cc1Cl
105.8

Tell us which Time value is on record for Cc1ccc(CN2C(=O)CCc3cc(-n4cnnc4)ccc32)cc1
78.8

Answer with the recorded Time for the compound listed here: O=C1CCc2cc(-n3cnnc3)ccc2N1Cc1ccccc1Cl
77.8
